target: Human pyruvate kinase R (PKR) (Homo sapiens, UniProt P30613); construct: Human pyruvate kinase R (PKR), residues 14-574; 6x-His (N, cleaved yes); 8x-Arg (N, cleaved yes); SUMO (N, cleaved yes); host or cells: E. coli; assay: Biochemical assay for activation of pyruvate kinase R (Kinase-Glo luminescence measurement of ATP generation); details: maximal activation level relative to the activation level achieved by the literature compound AG-348 @ 10 μM
Sequence (P30613 14-574): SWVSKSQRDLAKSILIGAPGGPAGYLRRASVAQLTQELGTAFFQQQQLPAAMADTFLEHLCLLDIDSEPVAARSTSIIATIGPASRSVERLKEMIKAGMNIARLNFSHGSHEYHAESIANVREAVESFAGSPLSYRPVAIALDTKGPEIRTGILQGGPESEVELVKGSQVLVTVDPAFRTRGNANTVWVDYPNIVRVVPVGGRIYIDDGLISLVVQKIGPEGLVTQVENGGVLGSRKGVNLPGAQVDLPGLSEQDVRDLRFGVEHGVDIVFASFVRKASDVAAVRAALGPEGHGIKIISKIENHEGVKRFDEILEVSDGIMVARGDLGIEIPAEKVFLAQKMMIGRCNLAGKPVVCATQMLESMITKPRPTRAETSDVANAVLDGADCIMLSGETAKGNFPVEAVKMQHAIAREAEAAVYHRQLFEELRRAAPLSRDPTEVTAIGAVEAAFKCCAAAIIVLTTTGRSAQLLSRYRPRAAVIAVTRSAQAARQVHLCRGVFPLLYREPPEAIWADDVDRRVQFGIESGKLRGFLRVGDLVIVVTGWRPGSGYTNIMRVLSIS
Experimental readout: Emax (%)

INSERT INTO results (molecule, tested_system, unit_descriptor, test_value) VALUES
  ('Cc1nc(CNC(=O)NCC2=NC3(CC3)C(=O)N2Cc2ccc(F)cc2)n(-c2ccc(Cl)c(F)c2)n1', 'Human pyruvate kinase R (PKR) (Homo sapiens, UniProt P30613)', '%', 125),
  ('O=C(NCc1ncnn1-c1ccc(Cl)c(F)c1)NCc1ncnn1C1CCOCC1', 'Human pyruvate kinase R (PKR) (Homo sapiens, UniProt P30613)', '%', 47);

1. O=C(NCC1=NC2(CC2)C(=O)N1Cc1ccc(F)cc1)NCc1ncnn1-c1ccc(Cl)c(F)c1
2. O=C(NCc1ncnn1-c1ccc(F)c(Cl)c1)NCc1ncnn1-c1ccc(F)c(Cl)c1
3. Cc1cc(-n2nnnc2CNC(=O)NCc2nnnn2-c2ccc(F)c(C)c2)ccc1F
Order the 3 molecules from highest to lowest Emax. Answer by writing out the labels in the requested order.
1, 3, 2

1. Cc1nc(CNC(=O)NCc2ncnn2-c2ccc(C3CC3)nc2)n(-c2ccc(Cl)c(F)c2)n1
2. Cc1nc(CNC(=O)NCc2ncnn2-c2ccc(C3CCC3)nc2)n(-c2ccc(Cl)c(F)c2)n1
Hey, which is lower on measured Emax, 1 or 2 ? Let me know the label of the one you choose.
2
(2: 64%, 1: 94%)

a. Cc1nc(CNC(=O)NCc2ncnn2CC2CCOC(C)(C)C2)n(-c2ccc(Cl)c(F)c2)n1 (centres unmarked)
b. CCN(Cc1ncnn1-c1cnc2ccccc2c1)C(=O)NCc1nc(C)nn1-c1ccc(Cl)c(F)c1
Could you check which of a and b has a smaller value for Emax? Select an item and report its label.
a
(a: 84%, b: 127%)

---

molecular target: Human pyruvate kinase R (PKR) (Homo sapiens, UniProt P30613); construct: Human pyruvate kinase R (PKR), residues 14-574; 6x-His (N, cleaved yes); 8x-Arg (N, cleaved yes); SUMO (N, cleaved yes); host or cells: E. coli; assay: Biochemical assay for activation of pyruvate kinase R (Kinase-Glo luminescence measurement of ATP generation); conditions: PKR biochemical assay; 0.1 nM PKR, 0.3 mM ADP, 2 mM FBP, 0.1 mM PEP
Experimental readout: AC50 (µM)

# annotated cases, reported AC50 shown
INSERT INTO measurements (smiles_structure, tested_system, experimental_readout, test_value) VALUES
  ('COc1ccc(-n2ncnc2CNC(=O)NCc2ncnn2-c2ccc(Cl)c(F)c2)cn1', 'Human pyruvate kinase R (PKR) (Homo sapiens, UniProt P30613)', 'AC50', 0.047),
  ('Cc1nc(CNC(=O)NCc2nc(C)nn2-c2ccc(Cl)cc2)n(-c2ccc(Cl)cc2)n1', 'Human pyruvate kinase R (PKR) (Homo sapiens, UniProt P30613)', 'AC50', 0.19),
  ('O=C(NCc1ncnn1-c1ccc2cccnc2c1)NCc1nnnn1-c1ccc(Cl)c(F)c1', 'Human pyruvate kinase R (PKR) (Homo sapiens, UniProt P30613)', 'AC50', 0.2),
  ('Cc1nc(CNC(=O)NCc2ncnn2-c2cc(F)c3ncccc3c2)n(-c2ccc(Cl)c(F)c2)n1', 'Human pyruvate kinase R (PKR) (Homo sapiens, UniProt P30613)', 'AC50', 0.035),
  ('Cc1ccc(-n2nnnc2CNC(=O)NCc2nnnn2-c2ccc(C)cc2F)c(F)c1', 'Human pyruvate kinase R (PKR) (Homo sapiens, UniProt P30613)', 'AC50', 0.67),
  ('Cc1nc(CNC(=O)NCc2ncnn2-c2ccc3c(c2)ncn3C)n(-c2ccc(Cl)c(F)c2)n1', 'Human pyruvate kinase R (PKR) (Homo sapiens, UniProt P30613)', 'AC50', 0.081);

A. Cc1nc(CNC(=O)NCc2ncnn2-c2ccc3nccnc3c2)n(-c2ccc(Cl)c(F)c2)n1
B. O=C(NCc1ncnn1-c1ccc(Cl)c(F)c1)N(CCO)Cc1nnnn1-c1ccc(Cl)c(F)c1
C. Cc1nc(CNC(=O)N(C)Cc2ncnn2-c2ccc3scnc3c2)n(-c2ccc(Cl)c(F)c2)n1
D. O=C(NCc1ncnn1-c1ccc2cccnc2c1)NCc1nc(C2CC2)nn1-c1ccc(Cl)c(F)c1
E. CCN(Cc1ncnn1-c1ccc(Cl)c(F)c1)C(=O)NCc1ncnn1-c1ccc(OC)nc1
Task field, ranking: reported AC50, descending order. Response field: labels, in requested order.
B, E, A, D, C
(B: 0.83 µM, E: 0.22 µM, A: 0.15 µM, D: 0.072 µM, C: 0.033 µM)
